Assay: reversal of MRP1-mediated doxorubicin resistance, pilot screen, H69AR cells, doxorubicin co-treatment (AID 601)
Conditions: H69AR cells + 2 uM doxorubicin, CellTiter-Glo, 72 h; at 10 µM; hits give high values
Calls of active or inactive are those of the source.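 The calls were made as follows: active = viability loss from added drug above about 55%, and viability with drug at most 40%, in both replicates (limit read from the data, passing the limit was not always enough); inconclusive = both conditions met in only one replicate; inactive = neither replicate meets both conditions.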
quantity_kind: differential viability (reversal)

These recorded examples may help you get a feel for the data.
CCc1ccc(Nc2cc(=O)n(C3CCCCC3)c(=O)[nH]2)cc1 :: -32.1% (inactive)
O=C(CCn1c(=O)c2ccccc2n(CC(=O)NCCC2=CCCCC2)c1=O)NCc1ccco1 :: 5.12% (inactive)
C[C@]12CCC(=O)C=C1CC[C@@H]1[C@@H]2[C@@H](O)C[C@@]2(C)[C@H]1CC[C@]2(O)C(=O)CO :: 5.76% (inactive)
Cc1cc(NC(=O)Cc2c(F)cccc2Cl)no1 :: 6.76% (inactive)
CC1(C)CC(=O)C=C(NCc2ccncc2)C1 :: -26.3% (inactive)
COc1ccc(S(=O)(=O)N(CCN2CCOCC2)Cc2cc(OC)ccc2OC)cc1 :: 3.16% (inactive)
N#C/C(=C(/O)COC(=O)CCC1CCCCC1)c1nc2ccccc2[nH]1 :: -9.79% (inactive)
CC1CCN(CCc2nc3cc(NS(=O)(=O)c4ccc(F)cc4)ccc3n2C)CC1 :: -3.08% (inactive)
CCC(=O)N1CCc2cc(S(=O)(=O)CCC(=O)Nc3nc(C)cs3)ccc21 :: 7.69% (inactive)
Cc1ccc(N(CC(O)CN2CCCC2)S(=O)(=O)c2ccc(C)cc2)cc1 (stereo not given) :: -1.29% (inactive)

Q: For Cc1cc(C(=O)CSc2nnc(-c3ccccc3)n2C)c(C)n1C , what is its reported differential viability (reversal)?
A: -3% (inactive)

Q: Another molecule to check: Cc1ccc(Cn2ccc(NC(=O)c3noc4c3CCCC4)n2)cc1
A: 23.6% (inactive)

Q: Queued: CCOc1ccccc1OCC(=O)NCc1ccco1
A: 0.205% (inactive)

Q: Moving on to COC(=O)c1c(C(=O)OC)n(CCCN)c2ccc(C)cc12
A: 4.39% (inactive)

Q: Cool, now Cc1cc(C)nc(NC2=NCC(=O)N2c2ccc(Cl)cc2)n1
A: 1.69% (inactive)
